Test system: IGROV1 ovarian
Experiment: NCI tumour cell line growth inhibition, 48 h

# compound, TGI
data = [
    ("Cc1cccc(C(C)(C)C)c1NC(=O)C(=O)C(C(=O)/C=C\\c1ccccc1)C1OC(=O)c2ccccc21 (stereo not given)", "> 100 µM"),
    ("Cc1ccc(S(=O)(=O)CC2CCCn3c2c(C#N)c2ccccc23)cc1 (stereo not given)", "> 100 µM"),
    ("O=C1/C(=C(/Br)I)c2ccccc2-c2ccccc21", "27.7 µM"),
    ("Cn1c(O)c(/C=N/c2ncccn2)c(=O)[nH]c1=O", "> 100 µM"),
    ("Cc1cn([C@@H]2C[C@](C)(CO)N(C)O2)c(=O)[nH]c1=O", "> 100 µM"),
    ("COCCN(C(=O)c1ccccc1)C1CCC(=O)c2[nH]c3ccccc3c21 (stereo not given)", "13.6 µM"),
    ("CC(O)/C=C/C(CCC(C)CO)C(C)C (stereo not given)", "> 100 µM"),
    ("O=S(=O)([O-])c1cccc2cccc(N=Cc3ccccc3[O-])c12.O=S(=O)([O-])c1cccc2cccc(N=Cc3ccccc3[O-])c12.[O]=[U]=[O]", "> 100 µM"),
    ("O=C1C(Cl)C(c2cccc(O)c2)N1n1cnc2ccccc2c1=O (stereo not given)", "> 100 µM"),
    ("CC(C)(C)N1CCC1C(N)=O (stereo not given)", "> 100 µM"),
]

====

System: ACHN renal
Assay: NCI tumour cell line growth inhibition, 48 h
measureName: log10 of TGI (log10 of the value in µM)

# molecule, measuredTarget, log10 of TGI
data = [
    ("O=[N+]([O-])c1cccc([N+](=O)[O-])c1Cl", "ACHN renal", 1.50),
    ("O=C1/C(=C(/Br)I)c2ccccc2-c2ccccc21", "ACHN renal", 1.28),
    ("Cc1ccc(C(CN(C)C)C(=O)c2ccccc2)cc1 (stereo unspecified)", "ACHN renal", 0.50),
    ("Cc1ccc(C2(N3CCOCC3)OC(C)(C)c3cccc4cccc2c34)cc1 (stereo unspecified)", "ACHN renal", 1.50),
    ("N#C[C@H]1C(=O)C(c2nc3ccccc3[nH]2)S[C@H]1c1ccccc1 (stereo partly specified)", "ACHN renal", 1.76),
    ("C=C1CC(Cn2cc(Br)c(=O)[nH]c2=O)(c2ccc(Br)cc2)OC1=O (stereo unspecified)", "ACHN renal", 0.97),
    ("CCC1(O)CC(O)c2c(O)c3c(c(O)c2C1C(=O)OC)C(=O)c1cccc(O)c1C3=O (stereo unspecified)", "ACHN renal", 1.18),
    ("CC(=O)NC1C(OCc2ccccc2)OC(CO)C(O)C1OCC(=O)N[C@@H](C)C(=O)N[C@H](CCC(=O)NCCCCNc1c2ccccc2nc2cccc([N+](=O)[O-])c12)C(N)=O (stereo partly specified)", "ACHN renal", 1.05),
    ("COc1c(O)c2c(c3cc(C(=O)N4CCc5c4c(O)c(OC)c4[nH]c(C(=O)N6CC7CC78C6=CC(=O)c6[nH]cc(C)c68)cc54)[nH]c13)CCN2C(N)=O (stereo unspecified)", "ACHN renal", -1.85),
    ("CCCCn1c2cc(OCc3cn(-c4ccc(Cl)cc4)nn3)ccc2c2ccnc(C)c21", "ACHN renal", 1.01),
]
